This collection of values is drawn from patent US11584763B2.

Reported pIC50 by item:
Target: PIP4K 2A (Homo sapiens, UniProt P48426)
Sequence (P48426 whole entry): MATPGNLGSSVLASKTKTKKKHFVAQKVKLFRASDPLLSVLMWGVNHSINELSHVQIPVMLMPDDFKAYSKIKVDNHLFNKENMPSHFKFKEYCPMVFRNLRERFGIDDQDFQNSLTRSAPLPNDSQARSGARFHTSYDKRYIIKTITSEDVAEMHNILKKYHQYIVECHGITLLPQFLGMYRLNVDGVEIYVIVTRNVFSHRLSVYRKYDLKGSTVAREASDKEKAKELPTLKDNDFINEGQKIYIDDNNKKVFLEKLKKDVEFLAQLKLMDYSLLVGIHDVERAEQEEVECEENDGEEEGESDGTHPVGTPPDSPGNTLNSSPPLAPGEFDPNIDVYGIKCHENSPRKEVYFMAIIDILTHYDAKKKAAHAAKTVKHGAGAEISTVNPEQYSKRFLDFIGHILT
Assay: ADP-glo kinase assay PIP4K 2A
Assay type: biochemical
Design: 4 nM PIP4K2A (full length protein, SignalChem); purchased SignalChem
Details: compounds listed under IC50 bin headings
pIC50: −log10 of the molar value.

Known pIC50 results, listed for orientation:
CC1Oc2cc(N3CCCC3=O)ccc2-c2cnc(Nc3cncc(NC(=O)C4Cc5ccccc5C4)c3)cc21 (stereo not shown)	7.00 to 8.00
CC1Oc2cc(N3CCCC3=O)ccc2-c2cnc(Nc3cncc(NC(=O)[C@H]4C[C@@H]4c4ccccc4)c3)cc21 (stereo partly shown)	8.00 to 9.00
CC(=O)N1CCOc2ncc(Nc3cc4c(cn3)-c3ccc(N5CCCC5=O)cc3OC4C)cc21 (stereo not shown)	8.00 to 9.00
CC1Oc2cc(N3CCCC3=O)ccc2-c2cnc(Nc3ccnnc3)cc21 (stereo not shown)	6.00 to 7.00
CC1Oc2cc(N3CCCC3=O)ccc2-c2cnc(Nc3cncc(NC(=O)c4cccc(F)c4)c3)cc21 (stereo not shown)	8.00 to 9.00
C[C@@H]1Oc2cc(N3CCCC3=O)ccc2-c2cnc(Nc3cnc4c(c3)N3C(=O)CC[C@H]3CO4)cc21	≥ 9.00

Now turn to the next molecule.
Q: // pIC50 lookup, key: COC(=O)N1CCOc2ncc(Nc3cc4c(cn3)-c3ccc(C(=O)N(C)C)cc3OC4C)cc21 (stereo not shown)
Result: ≥ 9.00

* * *

Read-out record for PIP4K2B (Homo sapiens, UniProt P78356): IC50

Q: // lookup IC50 for CC1Oc2cc(N3CCCC3=O)ccc2-c2cnc(Nc3cncc(NC(=O)[C@H]4C[C@@H]4c4ccccc4)c3)cc21 (stereo partly drawn)
Result: 10 to 100 nM

Q: Can you look up the measured IC50 of O=C1CCCN1c1ccc(-c2ccc(Nc3cnc4c(c3)N3C(=O)C5(CC5)C[C@H]3CO4)nc2)cc1F for me?
Result: 1 to 10 nM

Q: Item CC1(C)Oc2cc(N3CCCC3=O)c(F)cc2-c2cnc(Nc3cnc4c(c3)N3C(=O)CC[C@H]3CO4)nc21 has what recorded IC50?
Result: 1 to 10 nM

Q: I have this molecule here, CC1Oc2cc(N3CCCC3=O)ccc2-c2cnc(Nc3ccnnc3)cc21 (stereo not drawn) , and I need its recorded IC50.
Result: > 1000 nM

Q: Please look up its IC50: CC1Oc2cc(N3CCCC3=O)ccc2-c2cnc(Nc3cnc4c(c3)N(C(=O)CO)CCO4)cc21 (stereo not drawn)
Result: 1 to 10 nM

Q: Any idea what IC50 was measured for O=C1CCCN1c1ccc2c(c1)OCc1c(-c3ccncc3)cncc1-2 ?
Result: > 1000 nM

* * *

Biological target: PIP4K 2A (Homo sapiens)
Assay: ADP-glo kinase assay PIP4K 2A
Type: biochemical
Parameters: 4 nM PIP4K2A (full length protein, SignalChem); purchased SignalChem
Details: compounds listed under IC50 bin headings
We begin with a simple list: items and their reported IC50.

Q: Give its IC50 value. Item: C[C@H]1Oc2cc(N3CCCC3=O)ccc2-c2cnc(Nc3cnc4c(c3)N3C(=O)CC[C@H]3CO4)cc21
Result: ≤ 1 nM

Q: Entry CC1Oc2cc(N3CCCC3=O)c(F)cc2-c2cnc(Nc3cnc4c(c3)N3C(=O)C5(CC5)C[C@H]3CO4)cc21 (stereo partly drawn) : reported IC50 = ?
Result: ≤ 1 nM

Q: Consider the molecule CC1Oc2cc(N3CCCC3=O)ccc2-c2cnc(Nc3cncc(NC(=O)CO)c3)cc21 (stereo not drawn) and give its measured IC50.
Result: 1 to 10 nM
